B1: library; numbered along this chain (parent)
chain: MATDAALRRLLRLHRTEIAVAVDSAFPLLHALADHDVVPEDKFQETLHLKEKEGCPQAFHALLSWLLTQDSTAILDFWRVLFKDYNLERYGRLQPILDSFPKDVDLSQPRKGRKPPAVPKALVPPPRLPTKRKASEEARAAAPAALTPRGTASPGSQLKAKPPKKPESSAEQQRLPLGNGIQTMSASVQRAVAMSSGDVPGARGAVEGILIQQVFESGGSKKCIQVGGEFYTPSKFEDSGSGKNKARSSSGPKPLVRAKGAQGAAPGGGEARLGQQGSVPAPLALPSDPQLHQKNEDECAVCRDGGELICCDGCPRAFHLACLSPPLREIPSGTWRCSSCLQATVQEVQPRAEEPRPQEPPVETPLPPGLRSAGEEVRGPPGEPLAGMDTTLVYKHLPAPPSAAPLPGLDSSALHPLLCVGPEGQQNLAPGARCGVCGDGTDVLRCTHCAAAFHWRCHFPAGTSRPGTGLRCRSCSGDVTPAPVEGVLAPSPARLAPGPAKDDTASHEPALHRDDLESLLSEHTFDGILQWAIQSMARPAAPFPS

- Variants of: B1
- test description: AIRE transcriptional activation functional score (insulin promoter-GFP; nonsense median 0, synonymous median 1) (normalised score); higher = higher AIRE activity (more reporter activation)
- conditions: with insulin promoter-GFP reporter in HEK293
parameter: AIRE transcriptional activation functional score
Answers are plain numbers.

Here's what some known entries look like.
[
  {
    "change": "L93D",
    "endpoint value": -0.0637
  },
  {
    "change": "I330T",
    "endpoint value": 0.637
  },
  {
    "change": "W455Y",
    "endpoint value": 0.988
  },
  {
    "change": "V377T",
    "endpoint value": 1.37
  },
  {
    "change": "K245W",
    "endpoint value": 0.978
  }
]

Kindly give each listed record's AIRE transcriptional activation functional score.
1. A138G
2. V484G
3. D36G
4. A202Q
5. R203W
6. E17Q

Result ::
0.96
1.18
0.788
0.415
0.289
-0.406
